The measurements presented in this section are drawn from PubChem BioAssay AID1903.

I'd be grateful if you could share measured inhibition for these entries.
biological target: Large T antigen (Simian virus 40); experiment: SV40 large T antigen inhibitors, biochemical (AID 1903); details: SV40 large T antigen ATPase/helicase inhibition assay; at 20 µM; active compounds read high
Among all 310,000 compounds or so, about 1,200 (0.39%) were called active. A selection follows. Potency and affinity values are given separately.
Answers are plain numbers, in %.

A selection of reference data follows.
- COMPOUND: "COC(=O)C(N)Cc1ccc(O)c(O)c1 (configuration not stated)"
  SYSTEM UNDER TEST: "Large T antigen (Simian virus 40)"
  RESULT UNITS: "%"
  inhibition: 20.9
- COMPOUND: "CCc1ccccc1N1CC(C(=O)O)CC1=O (configuration not stated)"
  SYSTEM UNDER TEST: "Large T antigen (Simian virus 40)"
  RESULT UNITS: "%"
  inhibition: -0.59
- COMPOUND: "CCN(CC)S(=O)(=O)c1ccc(NC2=NS(=O)(=O)c3ccccc32)cc1"
  SYSTEM UNDER TEST: "Large T antigen (Simian virus 40)"
  RESULT UNITS: "%"
  inhibition: 5.33
- COMPOUND: "COc1cccc(-n2cc(C(=O)NCCCOC(C)C)c3ccccc3c2=O)c1"
  SYSTEM UNDER TEST: "Large T antigen (Simian virus 40)"
  RESULT UNITS: "%"
  inhibition: 11.2
- COMPOUND: "N#CC1=C(S)N(c2ccccc2)C(c2ccc(-c3cc(Cl)ccc3Cl)o2)NC1=O (configuration not stated)"
  SYSTEM UNDER TEST: "Large T antigen (Simian virus 40)"
  RESULT UNITS: "%"
  inhibition: 33.3

For every item in the list below, what is its measured inhibition?
1. Cc1ccccc1NC(=S)NCc1ccccc1
2. COc1cc(/C=C(\C#N)c2ccccn2)ccc1OCc1ccccc1
3. COc1ccccc1NC(=S)N(CCCN1CCOCC1)Cc1ccccn1

stdout:
1. 7.25
2. 4.85
3. 12.9

For every item in the list below, what is its measured inhibition?
1. CCC(=O)N1CCN(c2ccc(NC(=O)c3ccc(C#N)cc3F)cc2Cl)CC1
2. COc1ccc(N=Cc2[nH]c3ccccc3c2O)cc1
3. Oc1cc(O)c2c(c1)O[C@H](c1ccc(O)c(O)c1)[C@H](O)C2
4. COc1cc(/C=C(\C#N)c2ccccn2)ccc1OCc1ccc(Cl)cc1
5. O=S(=O)(c1ccc(Cl)cc1)N1CCCCCC1
6. Cc1ccc(NC(=O)CN(C)CC(=O)Nc2ccccc2C#N)cc1
7. CC(NC(=O)CS(=O)(=O)c1ccccc1)c1ccccc1 (configuration not stated)
8. COc1ccc(N(CC(=O)Nc2cc(C)on2)S(=O)(=O)c2cc(C)ccc2C)cc1

stdout:
[6.06, 13.7, 37.1, 12.1, 20.7, 8.84, 25, -9.08]

For every item in the list below, what is its measured inhibition?
1. CCOc1ccc(C(=O)NC(=S)Nc2ncccc2C)cc1[N+](=O)[O-]
2. Cc1ccc2[nH]c3ccccc3c(=O)c2c1
3. COc1cccc(CC(=O)OCC(=O)N(C)CC(=O)Nc2ccc(Cl)c(C(F)(F)F)c2)c1
4. CCOc1cc(/C=C2\C(=O)N(CCc3ccc(OC)c(OC)c3)C(C)=C2C(=O)OC)ccc1O

stdout:
5.78
4.82
5.39
22.8

For every item in the list below, what is its measured inhibition?
1. Nc1ccc(-c2nc3ccccc3[nH]2)cc1
2. Cc1nn(C(C)C(=O)NCC2CCCO2)c(=O)c2cc3occc3n12 (configuration not stated)
3. Cc1c(N2C(=O)/C(=C/c3ccccc3)SC2=S)c(=O)n(-c2ccccc2)n1C

stdout:
1: 6.85; 2: -0.26; 3: 14.5
